Test: inhibition of 3D7 malaria parasite growth – strain 3D7 (AID 2306);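 further: 0% = DMSO wells and 100% = chloroquine plus artemisinin control wells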
Conditions: P. falciparum 3D7 erythrocytic growth, LDH absorbance, 72 h; at 2 µM; stronger effect = higher value
The source made the active and inactive calls. How the calls were made is not given here.
readout_type: growth inhibition

Illustrative cases are given below, each with its answer.
Consider "CCn1ccc2c(N3CCCC3=O)cc(C(=O)N[C@@H](Cc3ccccc3)[C@H](O)CNC3CCCCC3)cc21" . Its measured growth inhibition is 99% (active)

Consider "CC[C@H](C)CNC(=O)c1ccnc(-c2ccc(CNCCCc3ccccc3)cc2)c1" . Its measured growth inhibition is 101% (active)

Consider "CCOc1ccc2c(NN=Cc3cccc(Cl)c3)cc(C)nc2c1" . Its measured growth inhibition is 93% (active)

New cases:
Consider "CCCNc1ccc2nccc(CCN3CCC(NCc4ccc5c(c4)NC(=O)CS5)CC3)c2n1" . Its measured growth inhibition is 94% (active)

Consider "Nc1c2ccccc2nc2ccc(Cl)cc12" . Its measured growth inhibition is 101% (active)

Consider "CC(C)COc1cc(C(=O)Nc2cnc3ccccc3c2)ccc1[N+](=O)[O-]" . Its measured growth inhibition is 97% (active)
